experiment: PAMPA
Please provide measured PAMPA for the entries that follow.

# input molecule: C[C@H](N)C(=O)NC(C)(C)Cc1cc(F)cc(F)c1 [MP-43] ; wanted: its PAMPA
1.59

# input molecule: CC(N)C(=O)OC(C)(C)Cc1ccc(F)cc1 (stereo not drawn) [MP-04] ; wanted: its PAMPA
2.75

# input molecule: CC(N)C(=O)OC1(Cc2ccc(Cl)cc2)CCC1 (stereo not drawn) [MP-09] ; wanted: its PAMPA
4.16

# input molecule: C[C@H](N)C(=O)NC(C)(C)Cc1ccc(F)c(F)c1 [MP-35] ; wanted: its PAMPA
1.7

# input molecule: CC(N)C(=O)OC(C)(C)Cc1ccc(C(F)(F)F)cc1.Cl (stereo not drawn) [MP-76] ; wanted: its PAMPA
2.71

# input molecule: CC(C)(N)C(=O)NCCc1ccc(Cl)cc1 [MP-79] ; wanted: its PAMPA
1.74

###

test system: SirT1 levels in N2a-E4 cells; test: SirT1 levels by AlphaLISA in ApoE4-transfected N2a cells; format: cell-based, murine
measure.name: SirT1 SμM

Sample records with SirT1 SμM:
CC(N)C(=O)OC(C)(C)Cc1ccccc1 (centres unmarked) [MP-02] = A, A (A >20%)
C[C@@H](N)C(=O)NC(C)(C)Cc1ccc(F)c(F)c1 [MP-36] = a, a (a <250%)
C[C@H](N)C(=O)NC(C)(Cc1ccc(Cl)cc1)c1ccc(Br)cc1 (some centres unmarked) [MP-30] = A, A (A >20%)
CCC(C)C(N)C(=O)OC(C)(C)Cc1ccc(Cl)cc1 (centres unmarked) [MP-11] = A, A (A >20%)
CC(N)C(=O)OC(C)(C)Cc1cc(F)cc(F)c1 (centres unmarked) [MP-14] = A, A (A >20%)

# input compound: CC(C)(Cc1ccc(F)c(F)c1)NC(=O)C1CCCN1 (centres unmarked) [MP-25] ; wanted: its SirT1 SμM
A (A >20%)

# input compound: C[C@H](NC(=O)OC(C)(C)C)C(=O)O[C@H]1CCC[C@@H]1c1ccc(Cl)cc1 (single isomer, unassigned) [MP-87] ; wanted: its SirT1 SμM
a, a (a <250%)

# input compound: C[C@H](N)C(=O)N[C@H]1Cc2ccccc2CNC1=O.Cl [MP-105] ; wanted: its SirT1 SμM
a, a (a <250%)

###

test: PAMPA
Structures can show the parent of a compound that is named as a salt.
measure.name: PAMPA
Please reply with the value in numeric form only.

# input compound: C[C@H](N)C(=O)NC(C)(Cc1ccc(Cl)cc1)c1ccc(Br)cc1 (some centres unmarked) [MP-30] ; wanted: its PAMPA
2.89

# input compound: CC(=O)c1ccc(CC(C)(C)NC(=O)[C@H](C)N)cc1 [MP-53] ; wanted: its PAMPA
0.49

# input compound: C[C@H](N)C(=O)Nc1ccc2ccccc2c1 [MP-55] ; wanted: its PAMPA
5.06

# input compound: C#Cc1ccc(CC(C)(C)OC(=O)[C@H](C)N)cc1 [MP-50] ; wanted: its PAMPA
3.36

# input compound: C[C@H](NC(=O)OC(C)(C)C)C(=O)NC(C)(C)Cc1ccc(C(F)(F)F)cc1 [MP-77] ; wanted: its PAMPA
1.61

# input compound: C[C@H](N)C(=O)OC(C)(C)Cc1ccncc1 [MP-48] ; wanted: its PAMPA
0.4

# input compound: C[C@H](N)C(=O)NC1Cc2ccccc2C1 [MP-56] ; wanted: its PAMPA
1.81

# input compound: C[C@H](N)C(=O)OC1(Cc2ccc(Cl)cc2)CCNC1 (single isomer, unassigned) [MP-32] ; wanted: its PAMPA
0.68

# input compound: CC(C)(Cc1ccc(Cl)cc1)OC(=O)C(N)CCCCN (centres unmarked) [MP-13] ; wanted: its PAMPA
6.49

# input compound: CC(N)C(=O)OC(C)(C)CCc1ccc(Cl)cc1 (centres unmarked) [MP-12] ; wanted: its PAMPA
4.95

# input compound: C#CC[C@H](N)C(=O)NC(C)(C)Cc1ccc(Br)cc1 [MP-62] ; wanted: its PAMPA
1.67

# input compound: C[C@@H](N)C(=O)NC(C)(C)Cc1ccc(Cl)cc1 [MP-27] ; wanted: its PAMPA
2.72

# input compound: CC(C)(Cc1ccc(Cl)cc1)OC(=O)C(N)CO (centres unmarked) [MP-16] ; wanted: its PAMPA
2.53

# input compound: CC(C)(Cc1ccc(Cl)cc1)OC(=O)C1CCCN1 (centres unmarked) [MP-20] ; wanted: its PAMPA
2.66

# input compound: Cc1ccc(CC(C)(C)OC(=O)C(C)N)cc1 (centres unmarked) [MP-06] ; wanted: its PAMPA
4.22

# input compound: CC(N)C(=O)NC(C)(C)Cc1ccc(Cl)cc1 (centres unmarked) [MP-15] ; wanted: its PAMPA
2.74

# input compound: CC(N)C(=O)OC(C)(C)Cc1ccccc1 (centres unmarked) [MP-02] ; wanted: its PAMPA
3.17

# input compound: CC(C)(Cc1ccc(F)c(F)c1)NC(=O)C1CCCN1C(=O)OC(C)(C)C (centres unmarked) [MP-24] ; wanted: its PAMPA
1.27

# input compound: C[C@H](N)C(=O)OC1(Cc2ccc(Cl)cc2)CCCC1 [MP-34, 1-(4-chlorobenzyl)cyclopentyl alaninate] ; wanted: its PAMPA
4.92

# input compound: C[C@H](N)C(=O)NC(C)(C)Cc1ccc(Br)cc1 [MP-47] ; wanted: its PAMPA
1.76

# input compound: CC(C)(Cc1ccc(Cl)cc1)NC(=O)C(C)(C)N [MP-29] ; wanted: its PAMPA
2.1

# input compound: C[C@@H](N)C(=O)NC(C)(C)Cc1cccc(C(F)(F)F)c1 [MP-40] ; wanted: its PAMPA
1.78

# input compound: C[C@H](N)C(=O)NC(C)(C)Cc1ccc(CC(F)(F)F)cc1 [MP-58] ; wanted: its PAMPA
1.28

# input compound: CC(C)(Cc1ccc(Br)cc1)NC(=O)[C@@H](N)CCC(=O)O [MP-61] ; wanted: its PAMPA
0.29

# input compound: C[C@H](N)C(=O)NC(C)(C)Cc1cccc(C(F)(F)F)c1 [MP-39] ; wanted: its PAMPA
1.7

# input compound: C[C@@H](N)C(=O)NC(C)(C)Cc1cc(F)cc(F)c1 [MP-44] ; wanted: its PAMPA
1.57

# input compound: C#Cc1ccc(CC(C)(C)NC(=O)[C@H](C)N)cc1 [MP-59] ; wanted: its PAMPA
2.49

# input compound: C[C@H](N)C(=O)OC1(Cc2ccc(Cl)cc2)CCNC1 (single isomer, unassigned) [MP-33] ; wanted: its PAMPA
0.7

# input compound: CC(N)C(=O)OC1(Cc2ccc(Cl)cc2)CCCCC1 (centres unmarked) [MP-10] ; wanted: its PAMPA
6.58

# input compound: CNC(C)C(=O)OC(C)(C)Cc1ccc(Cl)cc1 (centres unmarked) [MP-23] ; wanted: its PAMPA
3.03

# input compound: CC(N)C(=O)OC(C)(C)Cc1cc(F)cc(F)c1 (centres unmarked) [MP-14] ; wanted: its PAMPA
2.17

# input compound: CC(C)(Cc1ccc(Cl)cc1)OC(=O)C(N)Cc1ccccc1 (centres unmarked) [MP-01] ; wanted: its PAMPA
4.72

# input compound: CC(C)(Cc1ccc(Cl)cc1)OC(=O)CN [MP-07] ; wanted: its PAMPA
4.15

# input compound: O=C(N[C@H]1Cc2ccccc2CNC1=O)OCC1c2ccccc2-c2ccccc21 [MP-74] ; wanted: its PAMPA
1.55

# input compound: CC(N)C(=O)NC(C)(C)Cc1ccc(F)c(F)c1 (centres unmarked) [MP-22] ; wanted: its PAMPA
1.7

# input compound: C[C@H](N)C(=O)NC(C)(C)Cc1ccc(C(F)(F)F)cc1 [MP-78, hydrochloride] ; wanted: its PAMPA
1.93

# input compound: CC(C)CC(N)C(=O)OC(C)(C)Cc1ccc(Cl)cc1 (centres unmarked) [MP-05] ; wanted: its PAMPA
5.63

# input compound: C[C@@H](N)C(=O)NC(C)(C)Cc1ccc(F)c(F)c1 [MP-36] ; wanted: its PAMPA
1.66

###

test system: SirT1 levels in N2a-E4 cells; assay: SirT1 levels by AlphaLISA in ApoE4-transfected N2a cells; assay type: cell-based, murine
measure.name: SirT1 SμM

Sample records with SirT1 SμM:
C[C@H](N)C(=O)N[C@H]1CCC[C@@H]1c1ccc(Cl)cc1.Cl = A (A >20%)
C[C@@H](N)C(=O)NC(C)(C)Cc1ccc(Cl)cc1 = a, a (a <250%)
CC(C)(Cc1ccc(Cl)cc1)NC(=O)C(C)(C)N = a, a (a <250%)
C[C@H](N)C(=O)OC1(Cc2ccc(Cl)cc2)CCNC1 (single isomer, unassigned) [MP-33] = A (A >20%)
Cc1ccc(CC(C)(C)OC(=O)C(C)N)cc1 (centres unmarked) = A (A >20%)
C[C@H](N)C(=O)Nc1ccc2ccccc2c1 = A (A >20%)

# input molecule: C[C@H](N)C(=O)OC(C)(C)Cc1ccncc1 ; wanted: its SirT1 SμM
A (A >20%)

# input molecule: C[C@@H](N)C(=O)NC(C)(C)Cc1cccc(C(F)(F)F)c1 ; wanted: its SirT1 SμM
A, A (A >20%)

# input molecule: Cl.N[C@H]1Cc2cc(Cl)ccc2CNC1=O ; wanted: its SirT1 SμM
A (A >20%)

# input molecule: C[C@H](N)C(=O)NC(C)(C)Cc1ccc(F)c(F)c1 ; wanted: its SirT1 SμM
A, A (A >20%)
